Listed here are molecules together with their documented AST.
# Organism: Rattus norvegicus
# TEST PROTOCOL: Open TG-GATES - Regimen: Single
# Assay type: toxicity, organism-based, Sprague-Dawley
# Set-up: regimen Single, gender Male, age 6 weeks
# PARTICULARS: in vivo, po, 0 mg/kg, 6 h, tissue Plasma, route gavage, dose level Control
Express it in IU/L; write the number only.

Below are worked cases with known answers.
| MOLECULE | UOM | AST |
| --- | --- | --- |
| CC1=C(/C=C/C(C)=C/C=C/C(C)=C/CO)C(C)(C)CCC1 | IU/L | 67.8 |
| COc1ccc2[nH]c([S+]([O-])Cc3ncc(C)c(OC)c3C)nc2c1 (centres undefined) | IU/L | 66 |
| CCOc1ccc(NC(=O)CC(C)O)cc1 (centres undefined) | IU/L | 66.4 |
| Cc1ccc(C)c(OCCCC(C)(C)C(=O)O)c1 | IU/L | 70.6 |
| CC(C)OC(=O)C(C)(C)Oc1ccc(C(=O)c2ccc(Cl)cc2)cc1 [FENOFIBRATE] | IU/L | 81.8 |

Qu. Identify measured AST associated with "NNC(=O)c1ccncc1"
Ans. 64.8

Qu. Tell me its AST given CCOC(=O)CCC(=O)O[C@H]1[C@H](O[C@@H]2[C@@H](C)[C@H](O[C@H]3C[C@@](C)(OC)[C@@H](O)[C@H](C)O3)[C@@H](C)C(=O)O[C@H](CC)[C@@](C)(O)[C@H](O)[C@@H](C)C(=O)[C@H](C)C[C@@]2(C)O)O[C@H](C)C[C@@H]1N(C)C [ERYTHROMYCIN ETHYLSUCCINATE] as the entry.
Ans. 70.6

Qu. Specify reported AST for the molecule shown: "CC/C(=C(\c1ccccc1)c1ccc(OCCN(C)C)cc1)c1ccccc1"
Ans. 73

Qu. Look up AST of "CN(C)CCN(Cc1cccs1)c1ccccn1" and report it.
Ans. 68.4
